System: HOP-62
procedure-details: NCI tumour cell line growth inhibition, 48 h
The source made the active and inactive calls. Rule as the data show it: active = GI50 up to about 1.1 µM and inactive = higher.
Choose one outcome from this list and give only that: t for active, f for inactive

Reference set, count: 10
{"columns": ["compound", "assigned-category"],
 "data": [
  ["C1#Cc2ccccc2OCCOc2ccccc2C#Cc2ccccc2OCCOc2ccccc21", "f"],
  ["COc1cccc2c1C(=O)c1c(O)c3c(c(O)c1C2=O)C[C@@](O)(C(=O)CO)C[C@@H]3OC1CC(N)C(OC)C(C)O1 (stereo not given in full)", "t"],
  ["COc1ccc(/C(=C/n2ccnc2)C(=O)c2ccc(OC)c(OC)c2)cc1", "f"],
  ["CCOC(=O)NC/C=C/CO", "f"],
  ["Clc1ccc(CCc2ccncn2)c(Cl)c1", "f"],
  ["O=C1c2cccc3cccc(c23)C(=O)N1CCCNCCCNCCCCNCCCNCCCN1C(=O)c2cccc3cccc(c23)C1=O", "f"],
  ["N/C(=N\\O)N/N=C/c1ccc(O)c(O)c1", "f"],
  ["O=C1C2Cc3c(n(C(=O)c4ccccc4)c4ccccc34)CC2C(=O)N1c1ccc(Nc2ccc(N3C(=O)C4Cc5c(n(C(=O)c6ccccc6)c6ccccc56)CC4C3=O)cc2)cc1 (stereo not given)", "f"],
  ["COc1ccc2[nH]c(Cl)c(/C=C3/C(=O)Nc4cc(C)c(OC)cc43)c2c1", "f"],
  ["C[C@]12CCC(=O)C(O)=C1CC[C@@H]1C2CC[C@]2(C)NC(=O)CCC12 (stereo not given in full)", "f"]
]}

Query :: Outcome? "CC(=O)OCSc1ncnc2c1ncn2CN1CCOCC1"
Result :: f

Query :: Query BrC(=C(c1ccc(OC2CCCCO2)cc1)c1ccc(OC2CCCCO2)cc1)c1ccccc1 (stereo not given) next
Result :: f

Query :: Query CC1=CCC[C@@](C)(O)[C@@H]2C[C@H]3C(CSc4ccccc4)C(=O)O[C@H]3[C@@H](O2)[C@H](C)CCC1 (stereo not given in full) next
Result :: f

Query :: Query "CC(=O)OCC1=C(COC(C)=O)C(=O)c2c(O)ccc(O)c2C1=O" next
Result :: f

Query :: Query COC(=O)c1cc(C)ccc1CC(Cc1cccc(C)c1)C(=O)OC (stereo not given) next
Result :: f

Query :: Query COC(COC(N)=O)C1=C(N2CC2)C(=O)C(C)=C(N2CC2)C1=O (stereo not given) [CARBOQUONE] next
Result :: t

Query :: Query CC1C[C@]2(C)C(=O)Nc3ccccc3[C@@H]2Nc2ccccc21 (stereo not given in full) next
Result :: f

Query :: Query "O=c1cc(/C=C/c2ccc(O)c(O)c2)cc(/C=C/c2ccc(O)c(O)c2)o1" next
Result :: f

Query :: Query "N=C(N)NCCCS(=O)(=O)Nc1ccc(Nc2c3ccccc3nc3cc([N+](=O)[O-])ccc23)cc1" next
Result :: f

Query :: Query "Nc1cc(CO)cc(Nc2c3ccccc3nc3ccccc23)c1" next
Result :: f

---

Test system: SR
procedure-details: NCI tumour cell line growth inhibition, 48 h
Activity calls are given as the source filed them. No stated cut-off is given here; in the data, active = GI50 up to about 1.1 µM and inactive = higher.
Choose one outcome from this list and give only that: active, inactive

{"columns": ["compound", "assigned-category"],
 "data": [
  ["CC(=O)Oc1c2ccsc2c(OC(C)=O)c2ccsc12", "active"]
]}

Query :: Outcome? "O=C1c2cccc3cccc(c23)C(=O)N1CCCNCCCNCCCCNCCCNCCCN1C(=O)c2cccc3cccc(c23)C1=O"
Result :: active

Query :: Query "O=C(O)c1ccc(/N=C(\C(=N\c2ccc(C(=O)O)cc2)c2ccccc2)c2ccccc2)cc1" next
Result :: inactive

Query :: Query "OCc1nnn2c1CCC2" next
Result :: inactive

Query :: Query COC1OC(Cn2c(C)nc(Br)c2Br)C(O)C(O)C1O (stereo unspecified) next
Result :: inactive

Query :: Query CCC(C)c1c(Cl)nc(Cl)nc1Cl (stereo unspecified) next
Result :: inactive

Query :: Query "CCc1nc(N)nc(N)c1-c1ccc(Cl)c(/N=C/N(C)C)c1" next
Result :: inactive

Query :: Query "CCCCCCN(CCCCCC)C(=S)N/N=C(\C)c1ccccn1" next
Result :: active

Query :: Query "NNC(=O)c1cccc2c1Oc1ccccc1S2" next
Result :: inactive

Query :: Query "C=CCN1CN(c2ccccc2)C2(CCN(CCCC3(c4ccc(F)cc4)OCCO3)CC2)C1=O" next
Result :: inactive

Query :: Query "NC(=O)c1c([N+](=O)[O-])cc(C(F)(F)F)cc1[N+](=O)[O-]" next
Result :: inactive
